- test system: Recombinant human FAP (Homo sapiens)
- Construct: purchased R&D systems
- Sequence (Q12884 whole entry): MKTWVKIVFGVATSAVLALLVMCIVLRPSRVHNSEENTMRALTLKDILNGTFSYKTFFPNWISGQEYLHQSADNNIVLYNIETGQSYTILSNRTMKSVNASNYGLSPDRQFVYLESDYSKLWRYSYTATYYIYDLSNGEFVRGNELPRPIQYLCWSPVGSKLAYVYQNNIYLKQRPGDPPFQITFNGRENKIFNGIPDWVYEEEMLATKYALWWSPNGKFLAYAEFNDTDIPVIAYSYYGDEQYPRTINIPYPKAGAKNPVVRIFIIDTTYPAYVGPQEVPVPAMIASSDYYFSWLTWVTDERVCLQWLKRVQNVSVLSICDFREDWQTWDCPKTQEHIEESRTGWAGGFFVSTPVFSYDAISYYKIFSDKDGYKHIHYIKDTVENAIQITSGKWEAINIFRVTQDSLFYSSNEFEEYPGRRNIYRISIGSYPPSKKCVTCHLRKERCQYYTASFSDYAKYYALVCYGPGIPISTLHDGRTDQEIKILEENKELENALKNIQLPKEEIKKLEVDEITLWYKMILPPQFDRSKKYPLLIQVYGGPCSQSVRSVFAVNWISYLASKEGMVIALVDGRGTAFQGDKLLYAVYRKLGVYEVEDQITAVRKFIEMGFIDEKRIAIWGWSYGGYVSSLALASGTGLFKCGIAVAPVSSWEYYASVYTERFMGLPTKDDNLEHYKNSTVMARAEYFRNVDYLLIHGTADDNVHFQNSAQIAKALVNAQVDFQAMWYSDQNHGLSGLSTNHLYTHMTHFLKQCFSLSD
- measurement description: FAP FRET assay, FGF21-sequence FRET peptide substrate
- Format: biochemical
- run conditions: FRET peptide with human FGF21 sequence, 6 μM, 37° C.
- Protocol: The compounds according to the present technology were evaluated in terms of the inhibitory effect on the activity of dipeptidyl peptidases including FAP by using a substrate producing fluorescent substances upon enzymatic decomposition. […] Fluorescence intensity was measured using a microplate reader (Flexstation3, Molecular Devices) under the wavelength condition exciting at 380 nm and reading the emission at 460 nm. […]
I'd appreciate it if you could supply pIC50 values for the items below.
Bear in mind: pIC50 is minus log10 of a mol/L concentration; give just that figure.

Exam item: Entry under review: `N#C[C@@H]1C[C@H](F)CN1C(=O)CN1CCC(Nc2cc(F)c3ncccc3c2)CC1` . Reported pIC50?
Marked response: 7.64

Exam item: Entry under review: `N#C[C@@H]1C[C@H](F)CN1C(=O)CN1CCC(Nc2cnc3ccc(F)cc3c2)CC1` . Reported pIC50?
Marked response: 7.76

Exam item: Entry under review: `CCN(c1cccc2ncccc12)C1CCN(CC(=O)N2C[C@@H](F)C[C@H]2C#N)CC1` . Reported pIC50?
Marked response: 7.29

---

- test system: recombinant human DPP9 (Homo sapiens)
- Construct: purchased R&D Systems
- Sequence (Q86TI2 whole entry): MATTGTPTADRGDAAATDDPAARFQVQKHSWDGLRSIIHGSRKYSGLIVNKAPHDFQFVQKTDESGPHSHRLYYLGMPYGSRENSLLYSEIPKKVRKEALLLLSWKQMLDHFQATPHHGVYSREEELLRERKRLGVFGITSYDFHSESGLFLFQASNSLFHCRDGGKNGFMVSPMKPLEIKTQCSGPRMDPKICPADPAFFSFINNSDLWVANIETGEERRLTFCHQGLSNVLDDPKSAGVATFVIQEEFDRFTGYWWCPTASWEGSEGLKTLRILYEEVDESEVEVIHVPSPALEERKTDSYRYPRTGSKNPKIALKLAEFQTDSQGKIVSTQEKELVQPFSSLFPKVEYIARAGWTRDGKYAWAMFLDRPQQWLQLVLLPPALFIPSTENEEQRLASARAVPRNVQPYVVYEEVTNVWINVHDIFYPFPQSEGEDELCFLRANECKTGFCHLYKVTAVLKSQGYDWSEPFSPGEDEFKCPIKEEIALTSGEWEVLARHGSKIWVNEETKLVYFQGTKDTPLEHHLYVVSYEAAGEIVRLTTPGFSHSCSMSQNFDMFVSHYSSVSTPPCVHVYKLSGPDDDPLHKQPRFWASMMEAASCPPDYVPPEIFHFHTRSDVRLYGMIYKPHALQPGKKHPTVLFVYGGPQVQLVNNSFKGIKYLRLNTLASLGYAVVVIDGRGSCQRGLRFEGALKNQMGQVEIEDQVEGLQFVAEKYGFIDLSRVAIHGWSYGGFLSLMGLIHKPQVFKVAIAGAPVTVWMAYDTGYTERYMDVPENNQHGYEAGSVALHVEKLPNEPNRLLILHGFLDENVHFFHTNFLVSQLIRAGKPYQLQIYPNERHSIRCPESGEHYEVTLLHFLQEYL
- measurement description: DPP9 inhibition, fluorogenic substrate H-Gly-Pro-AMC
- Type: biochemical
- run conditions: recombinant human DPP9
pIC50: −log10 of the molar value.
Would you mind labelling by pIC50? At or over 5 is criterion met, under is criterion not met.

Exam item: Is the recorded value of pIC50 equal to or greater than 5 for this compound? CNC(=O)c1ccc(N[C@H]2CCN(CC(=O)N3CCC[C@H]3C#N)C2)c2cccnc12 [Example 286]
Marked response: criterion not met

Exam item: Is the recorded value of pIC50 equal to or greater than 5 for this compound? N#C[C@@H]1CCCN1C(=O)CN1CC[C@H](Nc2ccc(OC(F)(F)F)c3ncccc23)C1 [Example 246]
Marked response: criterion not met

Exam item: Is the recorded value of pIC50 equal to or greater than 5 for this compound? N#C[C@@H]1C[C@H](F)CN1C(=O)CN1CC[C@H](Nc2cc(C(F)(F)F)c3ncccc3c2)C1 [Example 280]
Marked response: criterion met

Exam item: Is the recorded value of pIC50 equal to or greater than 5 for this compound? COc1ccc(N[C@@H]2CCN(CC(=O)N3C[C@@H](F)C[C@H]3C#N)C2)c2cccnc12 [Example 178]
Marked response: criterion met

Exam item: Is the recorded value of pIC50 equal to or greater than 5 for this compound? Cc1cccc2c(N[C@@H]3CCN(CC(=O)N4C[C@@H](F)C[C@H]4C#N)C3)ccnc12 [Example 190]
Marked response: criterion met

Exam item: Is the recorded value of pIC50 equal to or greater than 5 for this compound? CN(C)C(=O)c1ccc(N[C@H]2CCN(CC(=O)N3C[C@@H](F)C[C@H]3C#N)C2)c2cccnc12 [Example 282]
Marked response: criterion met

Exam item: Is the recorded value of pIC50 equal to or greater than 5 for this compound? CCN(c1ccc2ncccc2c1)C1CCN(CC(=O)N2CCC[C@H]2C#N)CC1 [Example 303]
Marked response: criterion not met

Exam item: Is the recorded value of pIC50 equal to or greater than 5 for this compound? Cc1ccc(N[C@H]2CCN(CC(=O)N3CCC[C@H]3C#N)C2)c2cccnc12 [Example 242]
Marked response: criterion not met

Exam item: Is the recorded value of pIC50 equal to or greater than 5 for this compound? COc1ccnc2ccc(N[C@@H]3CCN(CC(=O)N4C[C@@H](F)C[C@H]4C#N)C3)cc12 [Example 212]
Marked response: criterion met

Exam item: Is the recorded value of pIC50 equal to or greater than 5 for this compound? N#C[C@@H]1CCCN1C(=O)CN1CC[C@H](Nc2ccc(C(F)(F)F)c3ncccc23)C1 [Example 245]
Marked response: criterion not met

Exam item: Is the recorded value of pIC50 equal to or greater than 5 for this compound? N#C[C@@H]1C[C@H](F)CN1C(=O)CN1CCC(Oc2cccc3ncccc23)CC1 [Example 425]
Marked response: criterion not met

Exam item: Is the recorded value of pIC50 equal to or greater than 5 for this compound? CN(c1ccc(OC(F)(F)F)c2ncccc12)[C@H]1CCN(CC(=O)N2C[C@@H](F)C[C@H]2C#N)C1 [Example 160]
Marked response: criterion met

Exam item: Is the recorded value of pIC50 equal to or greater than 5 for this compound? CN(c1ccc2ncccc2c1)C1CCN(CC(=O)N2C[C@@H](F)C[C@H]2C#N)CC1 [Example 315]
Marked response: criterion met

Exam item: Is the recorded value of pIC50 equal to or greater than 5 for this compound? N#C[C@@H]1C[C@H](F)CN1C(=O)CN1CCC(Nc2ccnc3ccc(F)cc23)CC1 [Example 337]
Marked response: criterion met

Exam item: Is the recorded value of pIC50 equal to or greater than 5 for this compound? N#C[C@@H]1C[C@H](F)CN1C(=O)CN1CCC(Nc2cc(Cl)c3ncccc3c2)CC1 [Example 376]
Marked response: criterion met

Exam item: Is the recorded value of pIC50 equal to or greater than 5 for this compound? Cc1ccc(N[C@@H]2CCN(CC(=O)N3CCC[C@H]3C#N)C2)c2cccnc12 [Example 200]
Marked response: criterion not met

Exam item: Is the recorded value of pIC50 equal to or greater than 5 for this compound? N#C[C@@H]1CCCN1C(=O)CN1CC[C@H](Nc2cc(C(F)(F)F)cc3ncccc23)C1 [Example 238]
Marked response: criterion not met

Exam item: Is the recorded value of pIC50 equal to or greater than 5 for this compound? Cc1cccc2c(OC3CCN(CC(=O)N4C[C@@H](F)C[C@H]4C#N)CC3)ccnc12 [Example 439]
Marked response: criterion met

Exam item: Is the recorded value of pIC50 equal to or greater than 5 for this compound? N#Cc1ccc(N[C@H]2CCN(CC(=O)N3CCC[C@H]3C#N)C2)c2cccnc12 [Example 247]
Marked response: criterion not met

Exam item: Is the recorded value of pIC50 equal to or greater than 5 for this compound? N#C[C@@H]1C[C@H](F)CN1C(=O)CN1CCC(Nc2ccc(F)c3cnccc23)CC1 [Example 357]
Marked response: criterion met

Exam item: Is the recorded value of pIC50 equal to or greater than 5 for this compound? N#C[C@@H]1C[C@H](F)CN1C(=O)CN1CCC(Oc2nccc3ccccc23)CC1 [Example 419]
Marked response: criterion not met

Exam item: Is the recorded value of pIC50 equal to or greater than 5 for this compound? N#C[C@@H]1C[C@H](F)CN1C(=O)CN1CCC(Nc2ccc(OC(F)(F)F)c3ncccc23)CC1 [Example 347]
Marked response: criterion met

Exam item: Is the recorded value of pIC50 equal to or greater than 5 for this compound? N#C[C@@H]1C[C@H](F)CN1C(=O)CN1CC[C@@H](Nc2ccc3nc(C(F)(F)F)ccc3c2)C1 [Example 210]
Marked response: criterion met

Exam item: Is the recorded value of pIC50 equal to or greater than 5 for this compound? COc1ccc2nccc(OC3CCN(CC(=O)N4CCC[C@H]4C#N)CC3)c2c1 [Example 426]
Marked response: criterion not met

Exam item: Is the recorded value of pIC50 equal to or greater than 5 for this compound? N#C[C@@H]1CCCN1C(=O)CN1CC[C@H](Nc2ccc(C(=O)Nc3cccnc3)c3ncccc23)C1 [Example 290]
Marked response: criterion met

Data origin: patent US11655235B2
